- SYSTEM TESTED: P2Y purinoceptor 2 (Homo sapiens)
- MEASUREMENT DESCRIPTION: Agonist activity at N-terminal HA epitope-tagged wild type 1 human P2Y2 receptor expressed in human 1321N1 cells assessed as increase in intracellular calcium level
- Assay type: functional, cell-based
OUTCOME MEASURE: pEC50
In plain terms, pEC50 is the concentration in mol/L turned into minus its base-10 logarithm.

Query string: Which pEC50 is listed for O=c1ccn([C@@H]2O[C@H](COP(=O)(O)OP(=O)(O)OP(=O)(O)O)[C@@H](O)[C@H]2O)c(=O)[nH]1 [URIDINE TRIPHOSPHATE] ?
Result string: 6.11

====

- SYSTEM TESTED: UniProtKB P41231
- MEASUREMENT DESCRIPTION: Agonist activity at N-terminal HA epitope-tagged wild type 4 human P2Y2 receptor expressed in human 1321N1 cells assessed as increase in intracellular calcium level
- Assay type: functional, cell-based
OUTCOME MEASURE: EC50

Below: 2 compounds and their reported EC50.
# COMPOUND, EC50
measured = [
    ("Nc1ncnc2c1ncn2[C@@H]1O[C@H](COP(=O)(O)OP(=O)(O)OP(=O)(O)O)[C@@H](O)[C@H]1O [ADENOSINE TRIPHOSPHATE]", "63.1 nM"),
    ("Nc1ncnc2c1ncn2[C@@H]1O[C@H](COP(=O)(O)OP(=O)(O)OP(=O)(O)OP(=O)(O)OC[C@H]2O[C@@H](n3cnc4c(N)ncnc43)[C@H](O)[C@@H]2O)[C@@H](O)[C@H]1O [DIADENOSINE TETRAPHOSPHATE]", "167 nM"),
]

Next compound, please.
Query string: # EC50 lookup, item O=c1ccn([C@@H]2O[C@H](COP(=O)(O)OP(=O)(O)OP(=O)(O)O)[C@@H](O)[C@H]2O)c(=O)[nH]1 [URIDINE TRIPHOSPHATE]
Result string: 59 nM

====

Attribute: pEC50
- SYSTEM TESTED: P2Y purinoceptor 2 (Homo sapiens, UniProt P41231, R180A)
- MEASUREMENT DESCRIPTION: Agonist activity at N-terminal HA epitope-tagged human P2Y2 receptor R180A mutant expressed in human 1321N1 cells assessed as increase in intracellular calcium level
Conceptually, pEC50 converts a concentration in mol/L into minus its log10.

Some entries whose results are on file:
# COMPOUND, OUTCOME MEASURE, DATA VALUE
data = [
    ("Nc1ncnc2c1ncn2[C@@H]1O[C@H](COP(=O)(O)OP(=O)(O)OP(=O)(O)OP(=O)(O)OC[C@H]2O[C@@H](n3cnc4c(N)ncnc43)[C@H](O)[C@@H]2O)[C@@H](O)[C@H]1O [DIADENOSINE TETRAPHOSPHATE]", "pEC50", 6.37),
    ("O=c1ccn([C@@H]2O[C@H](COP(=O)(O)OP(=O)(O)OP(=O)(O)O)[C@@H](O)[C@H]2O)c(=O)[nH]1 [URIDINE TRIPHOSPHATE]", "pEC50", 6.86),
]

Query string: Give pEC50 (P2Y purinoceptor 2 (Homo sapiens, UniProt P41231, R180A)) of the following compound: Nc1ncnc2c1ncn2[C@@H]1O[C@H](COP(=O)(O)OP(=O)(O)OP(=O)(O)O)[C@@H](O)[C@H]1O [ADENOSINE TRIPHOSPHATE]
Result string: 6.63

====

A collection of compounds and their measured IC50
- SYSTEM TESTED: P2Y purinoceptor 2 (Homo sapiens, UniProt P41231, Y118A)
- Sequence (P41231 whole entry Y118A): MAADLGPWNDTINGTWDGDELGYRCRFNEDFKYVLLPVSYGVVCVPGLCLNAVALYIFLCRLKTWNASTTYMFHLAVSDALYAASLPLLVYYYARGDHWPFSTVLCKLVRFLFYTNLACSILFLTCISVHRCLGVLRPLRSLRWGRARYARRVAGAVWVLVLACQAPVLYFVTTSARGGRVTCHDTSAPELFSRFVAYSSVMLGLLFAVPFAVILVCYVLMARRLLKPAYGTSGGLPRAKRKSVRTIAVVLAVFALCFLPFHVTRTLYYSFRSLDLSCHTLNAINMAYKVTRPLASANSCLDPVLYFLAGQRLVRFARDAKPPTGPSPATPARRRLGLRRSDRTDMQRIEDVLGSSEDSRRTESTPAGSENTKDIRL
- MEASUREMENT DESCRIPTION: Antagonist activity at N-terminal HA epitope-tagged human P2Y2 receptor Y118A mutant expressed in human 1321N1 cells assessed as inhibition of UTP-induced calcium mobilization
Form entry: value (µM) — number only.

# COMPOUND, DATA VALUE
records = [
    ("COc1ccc(Nc2cc(S(=O)(=O)O)c(N)c3c2C(=O)c2ccccc2C3=O)cc1", 22.4),
]

Next item in the queue.
Query string: For the compound shown here, Nc1c(S(=O)(=O)O)cc(Nc2ccc(Nc3nc(Cl)nc(Nc4cccc(S(=O)(=O)O)c4)n3)c(S(=O)(=O)O)c2)c2c1C(=O)c1ccccc1C2=O [RB 2] , give the reported IC50.
Result string: 1.57

====

- SYSTEM TESTED: P2Y purinoceptor 2 (Homo sapiens, UniProt P41231, R272A)
- MEASUREMENT DESCRIPTION: Agonist activity at N-terminal HA epitope-tagged human P2Y2 receptor R272A mutant expressed in human 1321N1 cells assessed as increase in intracellular calcium level
OUTCOME MEASURE: pEC50
Give only the number. pEC50 is defined as minus log10 of concentration in molar units.

Recorded pEC50, per entry:
# COMPOUND, OUTCOME MEASURE, DATA VALUE
data = [
    ("Nc1ncnc2c1ncn2[C@@H]1O[C@H](COP(=O)(O)OP(=O)(O)OP(=O)(O)O)[C@@H](O)[C@H]1O [ADENOSINE TRIPHOSPHATE]", "pEC50", 4.93),
    ("O=c1ccn([C@@H]2O[C@H](COP(=O)(O)OP(=O)(O)OP(=O)(O)O)[C@@H](O)[C@H]2O)c(=O)[nH]1 [URIDINE TRIPHOSPHATE]", "pEC50", 4.69),
]

Query string: What is its pEC50 for P2Y purinoceptor 2 (Homo sapiens, UniProt P41231, R272A)? Entry: Nc1ncnc2c1ncn2[C@@H]1O[C@H](COP(=O)(O)OP(=O)(O)OP(=O)(O)OP(=O)(O)OC[C@H]2O[C@@H](n3cnc4c(N)ncnc43)[C@H](O)[C@@H]2O)[C@@H](O)[C@H]1O [DIADENOSINE TETRAPHOSPHATE]
Result string: 3.13

====

- Test system: P2Y purinoceptor 2 (Homo sapiens), P41231 [S296A]
- Sequence (P41231 whole entry S296A): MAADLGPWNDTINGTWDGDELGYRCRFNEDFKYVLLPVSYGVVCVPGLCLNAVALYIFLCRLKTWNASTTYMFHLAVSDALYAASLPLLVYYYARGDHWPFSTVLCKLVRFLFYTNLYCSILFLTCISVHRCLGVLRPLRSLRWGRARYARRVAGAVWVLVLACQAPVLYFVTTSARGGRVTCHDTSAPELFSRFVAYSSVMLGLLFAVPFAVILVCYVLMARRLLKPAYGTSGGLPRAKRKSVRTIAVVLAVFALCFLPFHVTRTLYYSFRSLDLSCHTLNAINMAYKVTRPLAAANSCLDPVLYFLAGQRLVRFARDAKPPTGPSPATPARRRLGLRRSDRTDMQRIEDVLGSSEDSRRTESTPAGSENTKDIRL
- MEASUREMENT DESCRIPTION: Agonist activity at N-terminal HA epitope-tagged human P2Y2 receptor S296A mutant expressed in human 1321N1 cells assessed as increase in intracellular calcium level relative to carbachol
- Assay type: functional, cell-based
OUTCOME MEASURE: Efficacy (%)
Please respond with the number in % and leave the unit unwritten.

Field: example entries. Status: answers known.
# COMPOUND, UNITS, Efficacy
rows = [
    ("O=c1ccn([C@@H]2O[C@H](COP(=O)(O)OP(=O)(O)OP(=O)(O)O)[C@@H](O)[C@H]2O)c(=O)[nH]1 [URIDINE TRIPHOSPHATE]", "%", 3),
    ("O=c1ccn([C@@H]2O[C@H](COP(=O)(O)OP(=O)(O)OP(=O)(O)OP(=O)(O)OC[C@H]3O[C@@H](n4ccc(=O)[nH]c4=O)[C@H](O)[C@@H]3O)[C@@H](O)[C@H]2O)c(=O)[nH]1", "%", 5),
    ("Nc1ncnc2c1ncn2[C@@H]1O[C@H](COP(=O)(O)OP(=O)(O)OP(=O)(O)O)[C@@H](O)[C@H]1O [ADENOSINE TRIPHOSPHATE]", "%", 5),
]

Consider the additional compound presented here.
Query string: Record request: Efficacy value, item Nc1ncnc2c1ncn2[C@@H]1O[C@H](COP(=O)(O)OP(=O)(O)OP(=O)(O)OP(=O)(O)OC[C@H]2O[C@@H](n3cnc4c(N)ncnc43)[C@H](O)[C@@H]2O)[C@@H](O)[C@H]1O [DIADENOSINE TETRAPHOSPHATE]
Result string: 12

====

- SYSTEM TESTED: P2Y purinoceptor 2 (Homo sapiens, UniProt P41231, Y114A)
- MEASUREMENT DESCRIPTION: Antagonist activity at N-terminal HA epitope-tagged human P2Y2 receptor Y114A mutant expressed in human 1321N1 cells assessed as inhibition of UTP-induced calcium mobilization
- Format: functional, cell-based
OUTCOME MEASURE: IC50 (µM)
Kindly provide the numeric value in µM only, without the unit symbol.

Query string: Please report the recorded IC50 for "COc1ccc(Nc2cc(S(=O)(=O)O)c(N)c3c2C(=O)c2ccccc2C3=O)cc1" .
Result string: 24.6

====

Below is a list of entries, each paired with its recorded Efficacy value.
- Tested on: P2Y purinoceptor 2 (Homo sapiens), P41231 [R177A,R180A]
- Sequence (P41231 whole entry R177A/R180A): as the sequence (P41231 whole entry S296A) above, with R177A, R180A, A296S counted along it
- MEASUREMENT DESCRIPTION: Agonist activity at N-terminal HA epitope-tagged human P2Y2 receptor R177A_R180A double mutant expressed in human 1321N1 cells assessed as increase in intracellular calcium level relative to carbachol
- Assay type: functional, cell-based
Report the figure in % without appending any unit label.

Query string: Returns the measured Efficacy for the input molecule. Input: O=c1ccn([C@@H]2O[C@H](COP(=O)(O)OP(=O)(O)OP(=O)(O)O)[C@@H](O)[C@H]2O)c(=O)[nH]1 [URIDINE TRIPHOSPHATE]
Result string: 109

Query string: Check "O=c1ccn([C@@H]2O[C@H](COP(=O)(O)OP(=O)(O)OP(=O)(O)OP(=O)(O)OC[C@H]3O[C@@H](n4ccc(=O)[nH]c4=O)[C@H](O)[C@@H]3O)[C@@H](O)[C@H]2O)c(=O)[nH]1" too.
Result string: 101

Query string: Consider next the molecule Nc1ncnc2c1ncn2[C@@H]1O[C@H](COP(=O)(O)OP(=O)(O)OP(=O)(O)OP(=O)(O)OC[C@H]2O[C@@H](n3cnc4c(N)ncnc43)[C@H](O)[C@@H]2O)[C@@H](O)[C@H]1O [DIADENOSINE TETRAPHOSPHATE] in the same way.
Result string: 98

Query string: Now try Nc1ncnc2c1ncn2[C@@H]1O[C@H](COP(=O)(O)OP(=O)(O)OP(=O)(O)O)[C@@H](O)[C@H]1O [ADENOSINE TRIPHOSPHATE] .
Result string: 104
